Readings of per cent of control for the listed compounds
test system: RPS6KB1 (human), P23443 [T412E]; settings: compound 1.0 µM
Sequence (P23443 whole entry T412E, looked up): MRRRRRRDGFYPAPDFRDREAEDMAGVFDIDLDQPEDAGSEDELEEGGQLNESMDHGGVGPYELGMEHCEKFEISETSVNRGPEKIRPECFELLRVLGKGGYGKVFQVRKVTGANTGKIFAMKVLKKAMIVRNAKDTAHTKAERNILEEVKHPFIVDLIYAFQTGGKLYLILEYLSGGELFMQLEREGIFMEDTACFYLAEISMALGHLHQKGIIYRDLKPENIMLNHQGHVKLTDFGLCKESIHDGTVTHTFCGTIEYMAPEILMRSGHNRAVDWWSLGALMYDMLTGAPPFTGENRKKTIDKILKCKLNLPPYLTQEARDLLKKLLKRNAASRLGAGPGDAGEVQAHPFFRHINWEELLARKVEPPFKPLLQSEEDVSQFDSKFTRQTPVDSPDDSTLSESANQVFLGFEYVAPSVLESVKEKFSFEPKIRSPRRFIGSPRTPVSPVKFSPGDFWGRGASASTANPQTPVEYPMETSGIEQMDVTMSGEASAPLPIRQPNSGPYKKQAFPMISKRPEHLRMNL
Quick note: give the figure in %, leave out the unit.

Molecular String: COc1ccc(-c2ccc3c(N4CCOCC4)nc(N4C[C@@H](C)O[C@@H](C)C4)nc3n2)cc1CO
per cent of control (%): 104

Molecular String: CCC(=O)N1CCN(c2ccc(-n3c(=O)ccc4cnc5ccc(-c6cnc7ccccc7c6)cc5c43)cc2C(F)(F)F)CC1
per cent of control (%): 97

Molecular String: COC(=O)Nc1ccc(-c2nc(N3CCOCC3)c3cnn(C4CCN(C(=O)OC)CC4)c3n2)cc1
per cent of control (%): 94

Now for a further compound.
For the compound "CC(C)n1nc(-c2cc3cc(O)ccc3[nH]2)c2c(N)ncnc21" , what per cent of control is on record?
80

###

Each record here notes measured kinase still bound, per cent of control.
molecular target: RPS6KA3 KD1 (human); assay: KINOMEscan competition binding; conditions: compound 10.0 µM
Write the answer as a number in %, unit excluded.

Recorded kinase still bound, per cent of control, per entry:
Molecular String: CCC(=O)N1CCN(c2ccc(-n3c(=O)ccc4cnc5ccc(-c6cnc7ccccc7c6)cc5c43)cc2C(F)(F)F)CC1
kinase still bound, per cent of control [%]: 38
--
Molecular String: COc1ccc(-c2ccc3c(N4CCOCC4)nc(N4C[C@@H](C)O[C@@H](C)C4)nc3n2)cc1CO
kinase still bound, per cent of control [%]: 99
--
Molecular String: CC(C)n1nc(-c2cc3cc(O)ccc3[nH]2)c2c(N)ncnc21
kinase still bound, per cent of control [%]: 0.35

Turning to the following molecule.
Param item = "COC(=O)Nc1ccc(-c2nc(N3CCOCC3)c3cnn(C4CCN(C(=O)OC)CC4)c3n2)cc1" ; retrieve measured kinase still bound, per cent of control.
76

###

biological target: MST4 (human) (UniProt Q9P289); conditions: compound 10.0 µM
Sequence (Q9P289 whole entry, looked up): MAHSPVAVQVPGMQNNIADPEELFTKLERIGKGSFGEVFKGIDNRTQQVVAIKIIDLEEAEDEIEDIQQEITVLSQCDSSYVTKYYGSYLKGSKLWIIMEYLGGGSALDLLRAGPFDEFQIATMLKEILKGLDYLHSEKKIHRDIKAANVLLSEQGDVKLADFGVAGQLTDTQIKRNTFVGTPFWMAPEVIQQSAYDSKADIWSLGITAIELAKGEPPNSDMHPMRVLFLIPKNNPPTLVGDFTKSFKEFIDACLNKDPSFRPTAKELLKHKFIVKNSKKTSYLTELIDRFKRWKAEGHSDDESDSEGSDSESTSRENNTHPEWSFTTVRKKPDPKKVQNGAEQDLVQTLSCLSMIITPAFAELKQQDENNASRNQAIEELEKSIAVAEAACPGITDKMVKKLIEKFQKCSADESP
Value Kind: per cent of control (%)
State the answer as a number, implicitly in %.

See these solved cases before continuing.
Molecular String: CCC(=O)N1CCN(c2ccc(-n3c(=O)ccc4cnc5ccc(-c6cnc7ccccc7c6)cc5c43)cc2C(F)(F)F)CC1
Assayed System: MST4 (human) (UniProt Q9P289)
Value Kind: per cent of control
Readout Number: 89
//
Molecular String: COc1ccc(-c2ccc3c(N4CCOCC4)nc(N4C[C@@H](C)O[C@@H](C)C4)nc3n2)cc1CO
Assayed System: MST4 (human) (UniProt Q9P289)
Value Kind: per cent of control
Readout Number: 86
//
Molecular String: CC(C)n1nc(-c2cc3cc(O)ccc3[nH]2)c2c(N)ncnc21
Assayed System: MST4 (human) (UniProt Q9P289)
Value Kind: per cent of control
Readout Number: 13

Continue with the next compound.
API: value(readout= per cent of control, system= MST4 (human) (UniProt Q9P289), query= "COC(=O)Nc1ccc(-c2nc(N3CCOCC3)c3cnn(C4CCN(C(=O)OC)CC4)c3n2)cc1" )
82

###

target: UniProtKB P36894; test: KINOMEscan competition binding; conditions: compound 10.0 µM
Sequence (P36894 whole entry, looked up): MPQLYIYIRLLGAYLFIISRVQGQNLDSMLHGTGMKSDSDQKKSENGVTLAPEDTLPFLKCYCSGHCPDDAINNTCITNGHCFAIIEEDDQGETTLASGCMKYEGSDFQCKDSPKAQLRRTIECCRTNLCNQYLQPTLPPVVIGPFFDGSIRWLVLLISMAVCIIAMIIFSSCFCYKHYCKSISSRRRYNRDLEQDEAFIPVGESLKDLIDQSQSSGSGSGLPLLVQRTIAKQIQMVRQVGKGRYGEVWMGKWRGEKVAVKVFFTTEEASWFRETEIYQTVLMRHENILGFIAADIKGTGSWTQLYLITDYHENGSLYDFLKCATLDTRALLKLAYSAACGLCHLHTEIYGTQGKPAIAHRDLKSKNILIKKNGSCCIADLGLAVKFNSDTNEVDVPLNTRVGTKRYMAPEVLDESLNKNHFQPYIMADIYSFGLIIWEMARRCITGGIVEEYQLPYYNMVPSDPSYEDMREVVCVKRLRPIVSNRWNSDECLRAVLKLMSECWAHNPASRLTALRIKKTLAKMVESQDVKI
Each entry below carries its recorded kinase still bound, per cent of control.
The response must be a number in % with no trailing unit.

// solved cases for kinase still bound, per cent of control follow
Molecular String: CCC(=O)N1CCN(c2ccc(-n3c(=O)ccc4cnc5ccc(-c6cnc7ccccc7c6)cc5c43)cc2C(F)(F)F)CC1
Assayed System: UniProtKB P36894
kinase still bound, per cent of control (%): 45
//
Molecular String: CC(C)n1nc(-c2cc3cc(O)ccc3[nH]2)c2c(N)ncnc21
Assayed System: UniProtKB P36894
kinase still bound, per cent of control (%): 2.8
//
Molecular String: COC(=O)Nc1ccc(-c2nc(N3CCOCC3)c3cnn(C4CCN(C(=O)OC)CC4)c3n2)cc1
Assayed System: UniProtKB P36894
kinase still bound, per cent of control (%): 100

Note: attention shifts to another entry.
What does the record list as kinase still bound, per cent of control for "COc1ccc(-c2ccc3c(N4CCOCC4)nc(N4C[C@@H](C)O[C@@H](C)C4)nc3n2)cc1CO" ?
70

###

Recorded per cent of control values for a group of compounds are listed next.
biological target: UniProt P49841; details: compound 1.0 µM
Sequence (P49841 whole entry, looked up): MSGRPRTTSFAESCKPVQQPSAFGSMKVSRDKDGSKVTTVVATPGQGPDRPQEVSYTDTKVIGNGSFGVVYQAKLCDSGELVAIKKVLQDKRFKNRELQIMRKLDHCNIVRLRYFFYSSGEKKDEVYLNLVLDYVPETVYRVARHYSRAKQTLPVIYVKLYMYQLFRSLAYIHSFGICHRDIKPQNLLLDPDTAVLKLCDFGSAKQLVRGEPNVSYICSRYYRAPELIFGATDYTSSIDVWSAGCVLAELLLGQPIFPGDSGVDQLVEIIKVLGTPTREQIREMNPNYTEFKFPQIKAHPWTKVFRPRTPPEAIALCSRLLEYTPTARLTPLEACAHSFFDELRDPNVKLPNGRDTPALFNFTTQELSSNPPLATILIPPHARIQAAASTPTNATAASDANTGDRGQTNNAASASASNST

Known results for compounds:
Molecular String: CCC(=O)N1CCN(c2ccc(-n3c(=O)ccc4cnc5ccc(-c6cnc7ccccc7c6)cc5c43)cc2C(F)(F)F)CC1
per cent of control: 79%

Molecular String: CC(C)n1nc(-c2cc3cc(O)ccc3[nH]2)c2c(N)ncnc21
per cent of control: 103%

Molecular String: COc1ccc(-c2ccc3c(N4CCOCC4)nc(N4C[C@@H](C)O[C@@H](C)C4)nc3n2)cc1CO
per cent of control: 95%

Could you tell me which per cent of control is on file for "COC(=O)Nc1ccc(-c2nc(N3CCOCC3)c3cnn(C4CCN(C(=O)OC)CC4)c3n2)cc1" ?
86%

###

In this section we review reported kinase still bound, per cent of control values for a set of compounds.
biological target: LIMK2 (human); test: KINOMEscan competition binding; settings: compound 10.0 µM
Write the figure, then the unit, nothing else.

Molecular String: COC(=O)Nc1ccc(-c2nc(N3CCOCC3)c3cnn(C4CCN(C(=O)OC)CC4)c3n2)cc1
Result: 94%

Molecular String: COc1ccc(-c2ccc3c(N4CCOCC4)nc(N4C[C@@H](C)O[C@@H](C)C4)nc3n2)cc1CO
Result: 94%

Molecular String: CC(C)n1nc(-c2cc3cc(O)ccc3[nH]2)c2c(N)ncnc21
Result: 77%

Give recorded kinase still bound, per cent of control with LIMK2 (human) for the following compound: "CCC(=O)N1CCN(c2ccc(-n3c(=O)ccc4cnc5ccc(-c6cnc7ccccc7c6)cc5c43)cc2C(F)(F)F)CC1"
4.8%

###

target: CRK2 (P.falciparum) (UniProt P61075); assay: KINOMEscan competition binding; details: compound 10.0 µM
Sequence (P61075 whole entry, looked up): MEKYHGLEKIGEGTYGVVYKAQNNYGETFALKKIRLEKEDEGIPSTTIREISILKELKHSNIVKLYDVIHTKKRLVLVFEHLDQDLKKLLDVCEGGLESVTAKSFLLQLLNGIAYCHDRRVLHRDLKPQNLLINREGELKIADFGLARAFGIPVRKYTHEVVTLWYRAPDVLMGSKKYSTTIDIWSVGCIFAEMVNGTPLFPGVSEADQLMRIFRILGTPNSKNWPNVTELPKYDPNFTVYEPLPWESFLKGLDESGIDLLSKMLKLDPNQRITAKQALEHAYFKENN
The entries below are paired with their reported kinase still bound, per cent of control.
Enter the number, and then the unit.

Look at this molecule and give its reported kinase still bound, per cent of control. "COc1ccc(-c2ccc3c(N4CCOCC4)nc(N4C[C@@H](C)O[C@@H](C)C4)nc3n2)cc1CO"
90%

Suppose we examine the molecule "COC(=O)Nc1ccc(-c2nc(N3CCOCC3)c3cnn(C4CCN(C(=O)OC)CC4)c3n2)cc1" ; what kinase still bound, per cent of control value has been reported?
95%

Record request: kinase still bound, per cent of control value, item "CC(C)n1nc(-c2cc3cc(O)ccc3[nH]2)c2c(N)ncnc21"
93%

What does the record list as kinase still bound, per cent of control for "CCC(=O)N1CCN(c2ccc(-n3c(=O)ccc4cnc5ccc(-c6cnc7ccccc7c6)cc5c43)cc2C(F)(F)F)CC1" ?
97%

###

target: PRKACA (human); experiment: KINOMEscan competition binding; conditions: compound 10.0 µM
Recorded per cent of control values for a group of molecules are listed next.
The response must be a number in % with no trailing unit.

Form: Entry = "COc1ccc(-c2ccc3c(N4CCOCC4)nc(N4C[C@@H](C)O[C@@H](C)C4)nc3n2)cc1CO" | System = PRKACA (human) | per cent of control = ____
100

Any idea what per cent of control came out for "CC(C)n1nc(-c2cc3cc(O)ccc3[nH]2)c2c(N)ncnc21" on PRKACA (human)?
47

For the record "COC(=O)Nc1ccc(-c2nc(N3CCOCC3)c3cnn(C4CCN(C(=O)OC)CC4)c3n2)cc1" , what value of per cent of control is listed for PRKACA (human)?
100

Short answer please: per cent of control, PRKACA (human), entry "CCC(=O)N1CCN(c2ccc(-n3c(=O)ccc4cnc5ccc(-c6cnc7ccccc7c6)cc5c43)cc2C(F)(F)F)CC1"
79

###

target: ANKK1 (human) (UniProt Q8NFD2); assay: KINOMEscan competition binding; conditions: compound 10.0 µM
Sequence (Q8NFD2 whole entry, looked up): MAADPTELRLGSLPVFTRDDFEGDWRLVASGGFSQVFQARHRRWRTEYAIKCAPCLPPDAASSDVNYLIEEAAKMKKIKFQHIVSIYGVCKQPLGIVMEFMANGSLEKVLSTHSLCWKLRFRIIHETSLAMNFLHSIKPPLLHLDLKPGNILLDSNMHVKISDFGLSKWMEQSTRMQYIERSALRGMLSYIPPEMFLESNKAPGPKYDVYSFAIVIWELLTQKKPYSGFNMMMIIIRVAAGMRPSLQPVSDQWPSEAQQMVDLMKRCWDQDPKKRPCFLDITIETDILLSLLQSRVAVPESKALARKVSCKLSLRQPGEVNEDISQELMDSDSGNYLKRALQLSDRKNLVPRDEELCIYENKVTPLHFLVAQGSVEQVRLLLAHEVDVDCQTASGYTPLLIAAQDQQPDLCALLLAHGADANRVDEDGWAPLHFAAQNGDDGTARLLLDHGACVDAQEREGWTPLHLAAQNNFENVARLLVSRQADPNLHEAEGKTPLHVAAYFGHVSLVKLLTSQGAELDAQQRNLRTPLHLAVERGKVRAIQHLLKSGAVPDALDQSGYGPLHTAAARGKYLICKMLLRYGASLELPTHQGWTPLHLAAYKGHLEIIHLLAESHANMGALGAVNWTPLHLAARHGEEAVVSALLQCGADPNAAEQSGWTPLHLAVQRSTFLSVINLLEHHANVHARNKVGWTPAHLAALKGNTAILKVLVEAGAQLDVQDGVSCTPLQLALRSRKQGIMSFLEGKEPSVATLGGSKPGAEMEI
Reported values of kinase still bound, per cent of control for individual entries
The reply should contain only the number, in %.

Solved entries (count: 3):
Molecular String: COc1ccc(-c2ccc3c(N4CCOCC4)nc(N4C[C@@H](C)O[C@@H](C)C4)nc3n2)cc1CO
kinase still bound, per cent of control, %: 98
--
Molecular String: CCC(=O)N1CCN(c2ccc(-n3c(=O)ccc4cnc5ccc(-c6cnc7ccccc7c6)cc5c43)cc2C(F)(F)F)CC1
kinase still bound, per cent of control, %: 93
--
Molecular String: COC(=O)Nc1ccc(-c2nc(N3CCOCC3)c3cnn(C4CCN(C(=O)OC)CC4)c3n2)cc1
kinase still bound, per cent of control, %: 97

Kindly review the next molecule as well.
Form field - read-out: kinase still bound, per cent of control; system: ANKK1 (human) (UniProt Q8NFD2); submitted item: "CC(C)n1nc(-c2cc3cc(O)ccc3[nH]2)c2c(N)ncnc21"
8.8

###

biological target: WEE2 (human) (UniProt P0C1S8); experiment: KINOMEscan competition binding; settings: compound 10.0 µM
Sequence (P0C1S8 whole entry, looked up): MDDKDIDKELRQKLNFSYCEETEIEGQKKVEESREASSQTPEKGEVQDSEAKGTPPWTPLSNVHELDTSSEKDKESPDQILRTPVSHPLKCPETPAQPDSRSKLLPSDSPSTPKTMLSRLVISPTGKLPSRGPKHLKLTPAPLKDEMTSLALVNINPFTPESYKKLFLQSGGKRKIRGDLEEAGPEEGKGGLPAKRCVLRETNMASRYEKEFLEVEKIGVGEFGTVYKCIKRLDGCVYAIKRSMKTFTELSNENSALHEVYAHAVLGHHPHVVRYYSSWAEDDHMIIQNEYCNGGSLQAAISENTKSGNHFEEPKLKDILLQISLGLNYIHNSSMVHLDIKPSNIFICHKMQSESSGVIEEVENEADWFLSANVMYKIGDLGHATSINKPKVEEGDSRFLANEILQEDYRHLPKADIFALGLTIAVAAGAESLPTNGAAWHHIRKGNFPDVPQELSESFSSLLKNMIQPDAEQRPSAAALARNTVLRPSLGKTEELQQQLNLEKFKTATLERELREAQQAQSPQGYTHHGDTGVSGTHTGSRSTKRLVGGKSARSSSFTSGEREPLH
Each entry below carries its reported kinase still bound, per cent of control.
Output spec: scalar in %, unitless text.

Molecular String: CC(C)n1nc(-c2cc3cc(O)ccc3[nH]2)c2c(N)ncnc21
kinase still bound, per cent of control [%]: 100
--
Molecular String: CCC(=O)N1CCN(c2ccc(-n3c(=O)ccc4cnc5ccc(-c6cnc7ccccc7c6)cc5c43)cc2C(F)(F)F)CC1
kinase still bound, per cent of control [%]: 100
--
Molecular String: COC(=O)Nc1ccc(-c2nc(N3CCOCC3)c3cnn(C4CCN(C(=O)OC)CC4)c3n2)cc1
kinase still bound, per cent of control [%]: 95

Looking for the measured kinase still bound, per cent of control of "COc1ccc(-c2ccc3c(N4CCOCC4)nc(N4C[C@@H](C)O[C@@H](C)C4)nc3n2)cc1CO" , can you help?
100

meta.source: the kinase profiling compilation of Christmann-Franck et al. (2016)
